system: U2OS; assay: Multiplex assay against U2OS; format: toxicity, cell-based; details: human, 48 h, 10 µM, compound concentration 10 uM, replicate 2
The following compounds are listed with their measured Population Fragmented Nuclei (%) values.
Note: unit % is implicit; provide only the numeric part.

These solved cases illustrate the format of a correct answer.
COC(=O)C1=C(C)NC(C)=C(C(=O)OCCCN2CCC(c3ccccc3)(c3ccccc3)CC2)[C@H]1c1cccc([N+](=O)[O-])c1 :: 17
COc1ccccc1CN[C@H]1C2CCN(CC2)[C@H]1C(c1ccccc1)c1ccccc1 :: 9
Cc1c[nH]c2nccc(Oc3c(F)cc(Nc4cc(Cl)nc(N)n4)cc3F)c12 :: 12

### Prompt So what's the measured Population Fragmented Nuclei (%) for this one? O=C(c1cc2c(cc1F)OC(c1ccc(F)cc1)(c1ccc(Cl)cc1Cl)O2)N1CCOCC1 (stereo not drawn)
### Response 17

---

test system: U2OS; assay: Multiplex assay against U2OS; format: toxicity, cell-based; conditions: human, 12 h, 1 µM, compound concentration 1 uM, replicate 2
// values below are reported Population Membrane Permeable-Phenotype (%)
The reply should be a number in %, with the unit left off.

Example entries and their recorded answers appear below.
CC(C)Oc1ccccc1C(=O)Nc1ccccc1C(=O)Nc1cccc(S(=O)(=O)C(F)(F)F)c1 :: 10
Cc1c[nH]c2nccc(Oc3c(F)cc(Nc4cc(Cl)nc(N)n4)cc3F)c12 [BAY-549] :: 4
C=CC(=O)Nc1ccc2[nH]c(=O)n(C3CCN(Cc4ccc(-c5nc6cc[nH]c(=O)c6cc5-c5ccccc5)cc4)CC3)c2c1 [Borussertib] :: 11
CC(C)c1noc(N2CCC(COc3ccc(-c4ccc(S(C)(=O)=O)cc4)nc3)CC2)n1 [GSK-1292263] :: 3
Cc1cccc(CN2CCN(C(c3ccccc3)c3ccc(Cl)cc3)CC2)c1.Cl.Cl (stereo unspecified) :: 4

Continue with the compound presented below.
### Prompt Request the reported Population Membrane Permeable-Phenotype (%) associated with O=c1[nH]c2ccccc2n1C1CCN(Cc2ccc(-c3[nH]c4cc5ncnc5cc4nc3-c3ccccc3)cc2)CC1
### Response 25

---

test system: U2OS; assay: Multiplex assay against U2OS; assay type: toxicity, cell-based; settings: human, 48 h, 10 µM, compound concentration 10 uM, replicate 2
PROPERTY: Population Pyknosed Nuclei (%)
Express your answer in %, writing the number without its unit.

CC(C)c1noc(N2CCC(COc3ccc(-c4ccc(S(C)(=O)=O)cc4)nc3)CC2)n1 :: 14

### Prompt Return reported Population Pyknosed Nuclei (%); argument: CNC(=O)Nc1ccc(-c2nc(N3CC4CCC(C3)O4)c3cnn(C4CCC5(CC4)OCCO5)c3n2)cc1
### Response 58

### Prompt Could you do the same for CCCSc1nc(N[C@@H]2C[C@H]2c2ccc(F)c(F)c2)c2nnn([C@@H]3C[C@H](OCCO)[C@@H](O)[C@H]3O)c2n1 , please?
### Response 21

### Prompt Please do the same for O=C(c1cc2c(cc1F)OC(c1ccc(F)cc1)(c1ccc(Cl)cc1Cl)O2)N1CCOCC1 (stereo unspecified) as well.
### Response 31

### Prompt Next compound up: COc1cc(Nc2nccc(-c3cnn4nc(OC)ccc34)n2)cc(C(F)(F)F)c1
### Response 26

### Prompt Now the compound CC1=C(C(=O)Nc2cc3cn[nH]c3cc2F)C(c2ccc(C(F)(F)F)cc2)CC(=O)N1 (stereo unspecified)
### Response 8

### Prompt Could you do the same for CCc1nn(CCCN2CCN(c3cccc(Cl)c3)CC2)c(=O)n1CCOc1ccccc1.Cl [NEFAZODONE HYDROCHLORIDE] , please?
### Response 42

---

Reported Growth Rate values for the following compounds.
system: HEK-293T; assay: Incucyte cell viability with HEK293T; assay type: toxicity, cell-based; conditions: human, 0 h, 10 µM, compound concentration 10 uM, replicate number 2, timepoint 0 hours; further: filed as whole numbers so only -1 and 0 and 1 occur
API doc: respond with a numeric literal and nothing else, no unit.

O[C@H]1CC[C@H](Nc2ncc3nc(Nc4c(F)cc(F)cc4F)n([C@H]4CCOC4)c3n2)CC1 [TANZISERTIB] :: 1

### Prompt Query for HEK-293T: what Growth Rate does the record show for O=C(O)C1CN(Cc2ccc(OCc3ccc(Cl)c(Cl)c3)cc2)C1 ?
### Response 0

### Prompt // query: CN1CCc2c(c3ccccc3n2Cc2ccc(C(=O)NO)cc2)C1 [TUBASTATIN A]
### Response 1

---

system: HEK-293T; assay: Incucyte cell viability with HEK293T; type: toxicity, cell-based; conditions: human, 24 h, 10 µM, compound concentration 10 uM, replicate number 1, timepoint 24 hours; further: filed as whole numbers so only -1 and 0 and 1 occur
Below, each entry is listed alongside its reported Growth Rate.

Below: 4 compounds and their reported Growth Rate.
CN1CCN(Cc2ccc(Nc3ncc(Cl)c(Nc4ccccc4S(=O)(=O)N(C)C)n3)cc2)CC1 :: 0
Cc1c[nH]c2nccc(Oc3c(F)cc(Nc4cc(Cl)nc(N)n4)cc3F)c12 :: 0
CCOC(=O)c1cc2cc(-c3cc(C(=O)NCc4ccc(C(=O)O)cc4)nn3C)ccc2[nH]1 :: 0
O=C(O)CC/C=C\C[C@@H]1CO[C@H](c2ccccc2Cl)O[C@@H]1c1ccccc1O :: 1

### Prompt Growth Rate lookup needed for Cc1ccc2c(c1)c1c(n2CCc2ccc(C)nc2)CCN(C)C1 [LATREPIRDINE] , thanks.
### Response 0

### Prompt CC(C)CC(=O)Nc1[nH]nc2c1CN(C(=O)C1CCN(C)CC1)C2(C)C ?
### Response 0

### Prompt Next record, please: Cc1cc(C(C)(C)C)c(O)c(C)c1CC1=NCCN1.Cl [OXYMETAZOLINE HYDROCHLORIDE]
### Response 1

---

tested on: Fibroblast; test: Multiplex assay against human fibroblast; type: toxicity, cell-based; settings: 24 h, 10 µM, compound concentration 10 uM, replicate 2
PROPERTY: Population Apoptotic (%)
Value expressed in %; do not type the unit.

Cc1c[nH]c2nccc(Oc3c(F)cc(Nc4cc(Cl)nc(N)n4)cc3F)c12 :: 71
CC(C)c1noc(N2CCC(COc3ccc(-c4ccc(S(C)(=O)=O)cc4)nc3)CC2)n1 :: 36
CC(C)CC(=O)Nc1[nH]nc2c1CN(C(=O)C1CCN(C)CC1)C2(C)C :: 100
O=c1cc(N2CCOCC2)oc2c(-c3cccc4c3sc3ccccc34)cccc12 :: 66

Could you now look at the following molecule, please?
### Prompt Given CC(C)Oc1ccccc1C(=O)Nc1ccccc1C(=O)Nc1cccc(S(=O)(=O)C(F)(F)F)c1 , state its recorded Population Apoptotic (%).
### Response 100

---

system: Fibroblast; assay: Multiplex assay against human fibroblast; assay type: toxicity, cell-based; conditions: 24 h, 1 µM, compound concentration 1 uM, replicate 2
PROPERTY: Population Mitochondria Different-Phenotype (%)
Respond numerically; units are % and should not be typed.

Example cases with answers are listed next.
Cl.O=C(O)c1cc(-c2ccc(C3CCNCC3)cc2)c2ccc(-c3ccc(C(F)(F)F)cc3)cc2c1 :: 9
COc1ccc(-c2ccc3ncc4c(c3c2)n(-c2ccc(N3CCNCC3)c(C(F)(F)F)c2)c(=O)n4C)cn1.O=C(O)/C=C\C(=O)O :: 91
COc1ccccc1CN[C@H]1C2CCN(CC2)[C@H]1C(c1ccccc1)c1ccccc1 :: 4

Next item in the queue.
### Prompt Form field: reported Population Mitochondria Different-Phenotype (%) of C=CC(=O)Nc1cccc(Sc2nc(Nc3ccc(N4CCN(C)CC4)cc3)ncc2Cl)c1
### Response 0

---

test system: HEK-293T; experiment: Multiplex assay against HEK293T; type: toxicity, cell-based; conditions: human, 48 h, 10 µM, compound concentration 10 uM, replicate 1
PROPERTY: Population Mitotic Cells (%)

CCc1ccc(OCc2ccccc2C(=O)Nc2ccc3nc(C)cc(N)c3c2)cc1.Cl :: 50%

### Prompt Quick check: Population Mitotic Cells (%) of CC1=C(C(=O)Nc2cc3cn[nH]c3cc2F)C(c2ccc(C(F)(F)F)cc2)CC(=O)N1 (stereo not given) ?
### Response 50%

### Prompt CC(C)OC(=O)N1CCC(Oc2ncnc3c2cnn3-c2ccc(S(C)(=O)=O)cc2F)CC1 ?
### Response 49%

### Prompt Now consider O=C(c1cc2c(cc1F)OC(c1ccc(F)cc1)(c1ccc(Cl)cc1Cl)O2)N1CCOCC1 (stereo not given) and answer again.
### Response 46%

### Prompt Also O=c1cc(N2CCOCC2)oc2c(-c3cccc4c3sc3ccccc34)cccc12 ?
### Response 31%

---

test system: HEK-293T; test: Multiplex assay against HEK293T; assay type: toxicity, cell-based; conditions: human, 12 h, 10 µM, compound concentration 10 uM, replicate 1
PROPERTY: Population Membrane Permeable-Phenotype (%)
Express your answer in %, writing the number without its unit.

As a guide, the following entries are already answered.
O=C(c1cc2c(cc1F)OC(c1ccc(F)cc1)(c1ccc(Cl)cc1Cl)O2)N1CCOCC1 (stereo not drawn) :: 0
CC(C)(C)NC[C@H](O)COc1nsnc1N1CCOCC1 :: 2
COC(=O)C1=C(C)NC(C)=C(C(=O)OCCCN2CCC(c3ccccc3)(c3ccccc3)CC2)[C@H]1c1cccc([N+](=O)[O-])c1 :: 0
CC(C)c1noc(N2CCC(COc3ccc(-c4ccc(S(C)(=O)=O)cc4)nc3)CC2)n1 :: 16

### Prompt Given the entry CNC(=O)Nc1ccc(-c2nc(N3CC4CCC(C3)O4)c3cnn(C4CCC5(CC4)OCCO5)c3n2)cc1 , report its measured Population Membrane Permeable-Phenotype (%).
### Response 11

### Prompt Next: COc1ccccc1CN[C@H]1C2CCN(CC2)[C@H]1C(c1ccccc1)c1ccccc1
### Response 2

### Prompt What do you get for Cc1cccc(CN2CCN(C(c3ccccc3)c3ccc(Cl)cc3)CC2)c1.Cl.Cl (stereo not drawn) ?
### Response 3

### Prompt What do you get for Cl.O=C(O)c1cc(-c2ccc(C3CCNCC3)cc2)c2ccc(-c3ccc(C(F)(F)F)cc3)cc2c1 ?
### Response 3

### Prompt And CC(C)Oc1ccccc1C(=O)Nc1ccccc1C(=O)Nc1cccc(S(=O)(=O)C(F)(F)F)c1 ?
### Response 6
